Attribution: paper PMC10056636

Listing of entries alongside the reported hemolysis at 1 h.
Experiment: Hemolysis assay
Format: cell-based, human
Experimental Conditions: human, Dmax (maximal percentage of hemolysis)
Metric: hemolysis at 1 h (%)

Item Smiles: COC(=O)/C(CCC=C(C)C)=C1\[C@@H](OC(C)=O)C[C@@]2(C)[C@H]1C[C@@H](O)[C@H]1[C@@]3(C)CC[C@H](NCCN)[C@@H](C)[C@@H]3CC[C@@]12C
Measured: 34.8

Item Smiles: CC(=O)O[C@H]1C[C@@]2(C)[C@@H](C[C@@H](O)[C@H]3[C@@]4(C)CC[C@H](NCCCNCCCCNCCCN)[C@@H](C)[C@@H]4CC[C@@]32C)/C1=C(\CCC=C(C)C)C(=O)O
Measured: 8.7

Item Smiles: CCCCN[C@H]1CC[C@@]2(C)[C@@H](CC[C@@]3(C)[C@H]2[C@H](O)C[C@H]2/C(=C(\CCC=C(C)C)C(=O)OC)[C@@H](OC(C)=O)C[C@@]23C)[C@@H]1C
Measured: 3.4
